- Tested on: ERBB4;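 also: KINOMEscan kinase panel screen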
- Measurement Context: concentration: 1 μM,replicates: in singlicate; n = 1
Hi there, I'd appreciate the recorded %Inh for every entry that follows.
One number for each entry, in %.

Check out these entries, answers already filled in.
| Compound Structure String | %Inh / % |
| --- | --- |
| CC(=O)c1c(-c2ccncc2)[nH]c(-c2ccncc2)c1C | 34 |
| COc1cccc(C2=C(Nc3cccc(Cl)c3)C(=O)NC2=O)c1 | 0 |
| CCn1c(-c2nonc2N)nc2cncc(CNC3CCNCC3)c21.Cl | 0 |
| CCCC(=O)Nc1n[nH]c2ncccc12 | 0 |
| Cc1cccc2c(-c3ccncc3)c(-c3ccc(F)cc3)nn12.Cl | 16 |

State the recorded %Inh for every item in the following list.
1. CSc1nccc(-c2c(-c3ccc(F)cc3)ncn2CCCN2CCOCC2)n1.Cl
2. C[C@@H](Oc1cc(-n2cnc3ccc(-c4ccncc4)cc32)sc1C(N)=O)c1ccccc1Cl
3. Cl.c1ccc(Oc2ccc(Nc3ccnc4cc(-c5ccc(CN6CCNCC6)o5)ccc34)cc2)nc1
4. Cc1ccc2c(-c3ccnc(Nc4ccc(C(F)(F)F)cc4)n3)cnn2n1

0
41
42
5
